assay: NCI Yeast Anticancer Drug Screen. Data for the bub3 strain (AID 167); conditions: S. cerevisiae bub3 mutant strain, at 5.0 µM (retest, dose inferred, filed as 0.5), active compounds read high
This is part of a sample that, as a whole, favours compounds with a hit. Of some 79,000 tested, about 15% had one in any assay.
Reported growth inhibition is given for each of the following compounds.
Numeric only. Scale: %

Please review the following examples before continuing.
CC12CCCCC1C(=O)C2(Cl)Cl (stereo unspecified); 3
C=C1C(=O)O[C@@H]2C[C@@H](C)[C@@H]3C=CC(=O)[C@@]3(C)[C@@H](O)[C@H]12; -18
O=C(O)c1ccc([Se][Se]c2ccc(C(=O)O)cc2)cc1; 41

# ---- query compound ----
Query string: Bench note: what growth inhibition did O=C1C=CC(=O)C(Cl)=C1 show?
Result string: 16
